Just for reference, ChEMBL document CHEMBL1136016 is where these values come from.

biological target: Adenosine receptor A3 (Homo sapiens); assay: biochemical
Sequence (P0DMS8 whole entry): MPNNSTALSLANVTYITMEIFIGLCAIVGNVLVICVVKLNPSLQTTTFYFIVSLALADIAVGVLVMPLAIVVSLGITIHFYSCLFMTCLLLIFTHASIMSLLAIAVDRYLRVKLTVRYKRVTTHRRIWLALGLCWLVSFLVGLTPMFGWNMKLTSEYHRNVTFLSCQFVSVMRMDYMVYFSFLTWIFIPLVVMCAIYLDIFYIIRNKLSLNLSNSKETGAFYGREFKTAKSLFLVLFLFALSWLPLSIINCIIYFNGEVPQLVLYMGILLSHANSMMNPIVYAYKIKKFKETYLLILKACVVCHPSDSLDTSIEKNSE
Description: Displacement of [3H]MRE3008-F20 from human Adenosine A3 receptor expressed in HEK cells; range 0.27-0.43
assay.readout: pKi
// pKi here means minus log10 of the molar concentration (mol/L)

Form: compound = CCCn1cc2c(nc(NC(=O)Nc3ccccc3OC)n3nc(-c4ccco4)nc23)n1 ; pKi = 9.47

* * *

molecular target: UniProt P29274; assay: biochemical
Sequence (P29274 whole entry): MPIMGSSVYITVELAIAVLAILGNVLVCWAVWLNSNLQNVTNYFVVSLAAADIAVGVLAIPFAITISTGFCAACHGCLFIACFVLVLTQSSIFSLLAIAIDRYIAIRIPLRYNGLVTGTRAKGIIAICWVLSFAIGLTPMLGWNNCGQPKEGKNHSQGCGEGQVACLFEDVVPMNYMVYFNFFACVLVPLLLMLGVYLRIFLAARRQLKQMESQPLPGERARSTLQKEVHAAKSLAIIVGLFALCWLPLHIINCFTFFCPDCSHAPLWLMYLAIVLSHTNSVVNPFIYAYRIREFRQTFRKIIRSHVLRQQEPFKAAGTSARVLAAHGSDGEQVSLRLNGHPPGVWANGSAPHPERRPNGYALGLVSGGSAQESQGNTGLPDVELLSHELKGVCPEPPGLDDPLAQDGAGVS
assay.readout: pKi
Recall that pKi is obtained by taking minus log10 of the concentration measured in molar.

Looking up Cn1cc2c(nc(NC(=O)Nc3ccccc3)n3nc(-c4ccco4)nc23)n1 , I see its pKi listed as 6.42

* * *

target: Adenosine receptor A2b (Homo sapiens, UniProt P29275); assay: biochemical
Sequence (P29275 whole entry): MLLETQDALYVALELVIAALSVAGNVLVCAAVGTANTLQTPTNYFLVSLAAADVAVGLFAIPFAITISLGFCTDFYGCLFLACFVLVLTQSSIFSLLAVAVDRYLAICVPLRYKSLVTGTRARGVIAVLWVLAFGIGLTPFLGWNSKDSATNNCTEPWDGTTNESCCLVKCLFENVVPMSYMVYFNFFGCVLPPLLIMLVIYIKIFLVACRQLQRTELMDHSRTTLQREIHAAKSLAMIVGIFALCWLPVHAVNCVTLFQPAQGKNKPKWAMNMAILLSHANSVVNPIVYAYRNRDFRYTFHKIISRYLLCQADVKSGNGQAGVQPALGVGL
assay.readout: Ki (nM)
Output spec: scalar in nM, unitless text.

For reference, reported Ki for Cn1cc2c(nc(NC(=O)Nc3ccccc3)n3nc(-c4ccco4)nc23)n1 stands at 222
